- Test system: SF-539 CNS
- assaySummary: NCI tumour cell line growth inhibition, 48 h
propertyMeasured: TGI

Recorded TGI, per entry:
Q: # query: TGI of entry CNC(=O)OCc1nc(N=[N+]=[N-])n(C)c1COC(=O)NC
A: > 100 µM

Q: Follow-up entry: COc1ccc(-c2cc(=O)c3ccc(F)cc3[nH]2)cc1
A: > 100 µM

Q: Follow-up entry: CN(C)CCC(/C=C/c1ccccc1)=N\Nc1ccc(Cl)cc1
A: 5.32 µM

Q: Follow-up entry: CSC(=NC#N)S/C=C/C(=O)c1cccc2ccccc12
A: 68.2 µM

Q: Follow-up entry: COc1cc2oc(-c3cccc(C(=O)Nc4ccc(C)cc4)c3)cc(=O)c2c(OC)c1OC
A: 10.5 µM

Q: Follow-up entry: C=C[Si](C)(C)COC(=O)/C(C#N)=C/C=C/c1ccccc1
A: > 100 µM

Q: Follow-up entry: N#CCN1CCN(CC#N)CCN(CC#N)CCN(CC#N)CC1
A: > 100 µM

Q: Follow-up entry: NC1=NCC(c2ccccn2)C1c1ccc(F)cc1 (centres undefined)
A: > 100 µM

Let us move to another entry and its TGI.
Q: # query: TGI of entry OCc1ncc(-c2ccccc2)s1
A: > 100 µM
